- testDescription: inhibition of 3D7 malaria parasite growth – strain 3D7 (AID 2306);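 also: 0% = DMSO wells and 100% = chloroquine plus artemisinin control wells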
- assaySetup: P. falciparum 3D7 erythrocytic growth, LDH absorbance, 72 h; at 2 µM; hits give high values
Provide the recorded growth inhibition for the entries that follow.
The reply should be a number in %, with the unit left off.

Assign growth inhibition to the following record: O=C(Nc1ccc(-c2cccc(-c3nc4ccccc4[nH]3)c2)cc1)N[C@@H]1C[C@H]1c1ccccc1
84

Assign growth inhibition to the following record: CON(CCCN(C)C)C(=N)N
92

Assign growth inhibition to the following record: COc1ccc(Nc2cc(C)nc(Nc3ccc(NC(C)=O)cc3)n2)cc1
98

Assign growth inhibition to the following record: CN1CCCC(CN2CCN(Cc3ccc(-c4ccc(-c5nc6ccc(F)cc6[nH]5)cc4)cc3)CC2)C1 (stereo unspecified)
100

Assign growth inhibition to the following record: COc1cc(F)c2ncc(Cl)c([C@@H](O)CN3CCC(NCc4cc5c(cn4)OCCO5)CC3)c2c1
101

Assign growth inhibition to the following record: c1csc(-c2ccc3c(c2)CC(NCc2c[nH]c4cnccc24)C3)c1 (stereo unspecified)
100

// provenance: PubChem BioAssay
